Catalogue of pIC50 readings, one per entry.
assayed-system: Human PPARα (Homo sapiens, UniProt Q07869)
Sequence (Q07869 whole entry): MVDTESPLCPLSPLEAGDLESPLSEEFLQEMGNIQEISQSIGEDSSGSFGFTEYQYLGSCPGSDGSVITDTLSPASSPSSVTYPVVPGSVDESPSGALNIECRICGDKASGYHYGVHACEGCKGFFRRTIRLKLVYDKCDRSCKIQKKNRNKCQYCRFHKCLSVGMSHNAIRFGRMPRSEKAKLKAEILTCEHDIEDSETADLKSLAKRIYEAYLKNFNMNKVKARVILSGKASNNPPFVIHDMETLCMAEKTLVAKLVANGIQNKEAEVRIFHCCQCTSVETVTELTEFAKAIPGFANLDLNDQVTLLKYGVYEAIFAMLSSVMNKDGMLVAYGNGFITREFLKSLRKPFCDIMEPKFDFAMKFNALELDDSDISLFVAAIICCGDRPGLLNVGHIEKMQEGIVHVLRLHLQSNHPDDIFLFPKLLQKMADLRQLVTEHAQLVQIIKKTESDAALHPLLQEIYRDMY
test-details: Human PPARα Reporter Assay (luciferase, Indigo Biosciences)
condition-set: antagonist mode, reporter cells, overnight incubation
pIC50: −log10 of the molar value.
recorded-metric: pIC50

* CCCn1c(CCCc2ccc(-c3ccc(OCC)c(CC(=O)O)c3)cc2)nn(-c2ccc(C(F)(F)F)cc2)c1=O | 6.95
* CCOc1ccc(-c2ccc(CCCc3nn(-c4ccc(C(F)(F)F)cc4)c(=O)n3CC(C)C)cc2)cc1CC(=O)O | 6.82
* CCOc1ccc(-c2ccc(CCCc3nn(-c4ccc(C(C)(C)C)cc4)c(=O)n3-c3c(Cl)cccc3Cl)cc2)cc1CC(=O)O | 6.78
* Cc1cc(CCCc2nn(-c3ccc(C(F)(F)F)cc3)c(=O)n2-c2ccccc2F)ccc1-c1ccc(C(F)(F)F)c(C(=O)O)c1 | 6.72
* CCOc1ccc(-c2ccc(CCCc3nn(-c4ccc(C(F)(F)F)cc4)c(=O)n3-c3ccccc3CC)cc2)cc1CC(=O)O | 6.46
* CCCOc1ccc(-c2ccc(CCCc3nn(-c4ccc(C(F)(F)F)cc4)c(=O)n3C3CC3)cc2)cc1CC(=O)O | 7.37
* CCOc1ccc(-c2cccc(CCCc3nn(-c4ccc(C(F)(F)F)cc4)c(=O)n3-c3ccccc3F)c2)cc1CC(=O)O | 6.41
* CCOc1ccc(-c2ccc(CCCc3nn(-c4ccc(C(F)(F)F)cc4)c(=O)n3C3CCCCC3C)cc2)cc1CC(=O)O (stereo not shown) | 6.49
* CCCOc1ccc(-c2ccc(CCCc3nn(-c4ccc(C(F)(F)F)cc4)c(=O)n3-c3ccccc3F)cc2)cc1CC(=O)O | 6.95
* CCOc1ccc(-c2ccc(CCCc3nn(-c4ccc(OC(F)(F)F)cc4)c(=O)n3C3CCCCC3)cc2)cc1CC(=O)O | 7.54
* CCOc1ccc(-c2ccc(CCCc3nn(-c4ccc(C(F)(F)F)cc4)c(=O)n3-c3ccccc3F)cc2C)cc1C(=O)O | 7.38
* CCOc1ccc(-c2ccc(CCCc3nn(-c4ccc(C(F)(F)F)cc4)c(=O)n3-c3cc(F)ccc3F)cc2)cc1CC(=O)O | 7.06
* CCOc1ccc(-c2ccc(CCCc3nn(-c4ccc(C(F)(F)F)cc4Cl)c(=O)n3-c3ccccc3F)cc2)cc1CC(=O)O | 6.86
* CCOc1ccc(-c2ccc(CCCc3nn(-c4ccc(C(C)C)cc4)c(=O)n3-c3ccccc3Cl)cc2)cc1CC(=O)O | 7.55
* CCOc1ccc(-c2ccc(CCCc3nn(-c4ccc(C(F)(F)F)cc4)c(=O)n3C3CCCC(C)C3)cc2)cc1CC(=O)O (stereo not shown) | 6.87
* CCOc1ccc(-c2ccc(CCCc3nn(-c4ccc(C(F)(F)F)cc4)c(=O)n3-c3cccc(F)c3)cc2)cc1CC(=O)O | 7.52
* CCOc1ccc(-c2cccc(CCCc3nn(-c4ccc(C(F)(F)F)cc4)c(=O)n3C(C)C)c2)cc1CC(=O)O | 6.70
* COc1ccc(-c2ccc(CCCc3nn(-c4ccc(C(F)(F)F)cc4)c(=O)n3C3CC3)cc2)cc1CC(=O)O | 6.97
* CCOc1ccc(-c2ccc(CCCc3nn(-c4ccc(C(F)(F)F)cc4)c(=O)n3-c3ccccc3F)cc2C)cc1CC(=O)O | 6.60
